Measured viability accompanies every entry in the list below.
assay: Cytotoxicity against human CRL cells assessed as viability upto 100 uM by MTT assay; format: cell-based; settings: read-out: Activity
measuredQuantity: viability (%)

• CC(=O)N1CCN(c2ccc(OC[C@H]3CO[C@@](C)(c4ccc(F)cc4F)O3)cc2)CC1 = 98
• CC(=O)N1CCN(c2ccc(OC[C@H]3CO[C@](Cn4ccnc4)(c4ccc(Cl)cc4Cl)O3)cc2)CC1 [KETOCONAZOLE] = 65

Just for reference, ChEMBL document CHEMBL1155093 is where these values come from.
